The values you see were collected from the supplement of paper PMC9492666.

Test system: HCC1937;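 also: viability read out with the CCK-8 kit in 96-well plates, screening a set of 303 compounds acting on lipid metabolism targets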
Test: relative cell viability, compound alone, vs DMSO (fraction of DMSO control); higher = less growth inhibition
Details: 72 h
Structures can show the parent of a compound that is named as a salt.
The label is Criterion met for relative cell viability below 0.8 and Criterion not met for relative cell viability equal to or exceeding 0.8.

COMPOUND	QUALITATIVE_LABEL
CC(C)(Oc1ccc(C2CC2(Cl)Cl)cc1)C(=O)O (configuration not stated) [Ciprofibrate]	Criterion not met
CCCC[S+]([O-])c1sc2nc(-c3cccs3)cc(-c3ccccc3)c2c1N (configuration not stated)	Criterion not met
CCCCC[C@H](O)CC(=O)CCc1ccc(O)c(OC)c1	Criterion met
CCCc1cc(-c2nc(-c3ccc(NS(C)(=O)=O)cc3)cs2)ccn1	Criterion met
CN(C)C(=O)Nc1cccc(-c2ccc(N(C)C)cc2)c1	Criterion met
c1cc(-c2cnn3cc(-c4ccc(OCCN5CCCCC5)cc4)cnc23)ccn1 [Dorsomorphin dihydrochloride]	Criterion met
CC[C@@H]1/C=C(\C)C[C@H](C)C[C@H](OC)[C@H]2O[C@@](O)(C(=O)C(=O)N3CCCC[C@H]3C(=O)O[C@H](/C(C)=C/[C@@H]3CC[C@@H](O)[C@H](OC)C3)[C@H](C)[C@@H](O)CC1=O)[C@H](C)C[C@@H]2OC	Criterion met
COc1ccc(CN2CCC(c3ccc4nc(C(=O)N5CCN(Cc6ccc(C(F)(F)F)cc6)CC5)[nH]c4c3)CC2)cn1	Criterion not met

Qu. Take the compound COC(=O)CN(c1ccc(CN(c2ccc(OCc3ccc(C)cc3)c(C(=O)OC)c2)S(=O)(=O)Cc2ccccc2)cc1)S(C)(=O)=O and say whether its relative cell viability is less than 0.8.
Ans. Criterion not met

Qu. Take the compound OC[C@H]1O[C@@H](Oc2cc(O)cc(/C=C/c3ccc(O)cc3)c2)[C@H](O)[C@@H](O)[C@@H]1O and say whether its relative cell viability is less than 0.8.
Ans. Criterion not met
